test-summary: Plasma pharmacokinetics after single subcutaneous administration (LC-MS)
Assay type: in vivo, Sprague-Dawley rats
condition-description: Dose 16.6 mg/kg s.c., rat plasma
Where a SMILES comes first, the peptide text is derived from it. [ ]: non-standard residue; d: D form. αMeF = C[C@](N)(Cc1ccccc1)C(=O)O; Aib = CC(C)(N)C(=O)O
observable: Kelim
Number first, unit second.

Sample CC(=O)N[C@@H](CCCNC(=N)N)C(=O)NC(C)(C)C(=O)N[C@@H](CCCNC(=N)N)C(=O)N[C@@](C)(Cc1ccccc1)C(N)=O [Ac-Arg-Aib-Arg-α(Me)Phe-NH2] (Ac-R[Aib]R[αMeF]-NH2) — what was its Kelim?
0.309 h⁻¹
